test: Half life in Bacteroides fragilis ATCC 23745 and Enterobacter cloacae isolate 22491-infected BALB/c mouse mixed infection abscesses model at 100 mg/kg administered as 36 doses every 2 hrs; format: ADME, organism-based; parameters: dose 100 mg/kg; conditions: in vivo

[
  {
    "Substance Smiles": "CO/N=C(\\C(=O)N[C@@H]1C(=O)N2C(C(=O)O)=CCS[C@H]12)c1csc(N)n1",
    "half-life (min)": 13.2
  }
]

###

test: Half life in Bacteroides fragilis ATCC 23745 and Enterobacter cloacae isolate 22491-infected BALB/c mouse mixed infection abscesses model at 100 mg/kg administered as single dose; format: ADME, organism-based; set-up: dose 100 mg/kg; conditions: in vivo

[
  {
    "Substance Smiles": "CO/N=C(\\C(=O)N[C@@H]1C(=O)N2C(C(=O)O)=CCS[C@H]12)c1csc(N)n1",
    "half-life (min)": 13.8
  }
]
